biological target: T1, recombinant human PD-L1 (amino acids 19-239 of NP_054862.1) expressed with a C-terminal mouse IgG2a Fc tag (human); experiment: competition ELISA: 0.5 nM hPD-L1-mFc binding to coated hPD-1-hFc
T1 construct: called dimeric; also called hPD-L1-mFc
T1 sequence (chain, as listed by the source limits assumed): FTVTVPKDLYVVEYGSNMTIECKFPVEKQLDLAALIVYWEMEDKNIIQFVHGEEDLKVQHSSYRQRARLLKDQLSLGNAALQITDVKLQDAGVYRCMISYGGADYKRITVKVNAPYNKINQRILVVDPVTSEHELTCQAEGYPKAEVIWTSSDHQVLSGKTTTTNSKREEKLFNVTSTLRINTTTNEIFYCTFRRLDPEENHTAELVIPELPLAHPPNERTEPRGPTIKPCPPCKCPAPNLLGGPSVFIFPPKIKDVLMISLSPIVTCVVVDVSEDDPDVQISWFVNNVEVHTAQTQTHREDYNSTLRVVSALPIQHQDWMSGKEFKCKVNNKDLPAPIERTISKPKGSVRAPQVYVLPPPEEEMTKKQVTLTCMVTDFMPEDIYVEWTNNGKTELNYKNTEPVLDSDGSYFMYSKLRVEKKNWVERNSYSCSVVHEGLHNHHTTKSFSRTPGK
Below, each of the binders is paired with its reported % maximum blocking value.

H2aM8310N (antibody, V domains shown, human variable regions, mouse IgG2 Fc (H2aM prefix); also called H2M8310N) VH: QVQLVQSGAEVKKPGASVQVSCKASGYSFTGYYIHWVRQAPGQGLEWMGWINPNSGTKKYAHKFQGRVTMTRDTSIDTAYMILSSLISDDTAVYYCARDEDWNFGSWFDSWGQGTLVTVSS VL: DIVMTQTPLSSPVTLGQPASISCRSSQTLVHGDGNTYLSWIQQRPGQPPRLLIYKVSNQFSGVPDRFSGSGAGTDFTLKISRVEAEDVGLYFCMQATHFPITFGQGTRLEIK    76%
H2aM8314N (antibody, V domains shown, human variable regions, mouse IgG2 Fc (H2aM prefix); also called H2M8314N) VH: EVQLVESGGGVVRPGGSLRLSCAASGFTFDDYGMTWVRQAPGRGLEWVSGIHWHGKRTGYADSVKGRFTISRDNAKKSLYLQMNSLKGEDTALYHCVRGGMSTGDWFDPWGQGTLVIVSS VL: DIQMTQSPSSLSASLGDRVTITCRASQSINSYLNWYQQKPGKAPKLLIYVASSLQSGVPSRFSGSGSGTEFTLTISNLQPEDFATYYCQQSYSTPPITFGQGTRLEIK    93%

Ask | Which value of % maximum blocking has been reported for H1H9336P (antibody, V domains shown, human IgG1 Fc (H1H prefix)) VH: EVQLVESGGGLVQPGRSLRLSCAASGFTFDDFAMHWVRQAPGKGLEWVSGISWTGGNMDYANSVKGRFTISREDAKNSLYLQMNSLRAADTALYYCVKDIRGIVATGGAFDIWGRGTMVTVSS VL: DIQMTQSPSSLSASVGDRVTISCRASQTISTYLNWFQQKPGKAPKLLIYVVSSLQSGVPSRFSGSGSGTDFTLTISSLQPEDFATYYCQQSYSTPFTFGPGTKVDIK in the records?
Reply | 100%

Ask | I would be grateful if you could share the reported % maximum blocking for H1H9329P (antibody, V domains shown, human IgG1 Fc (H1H prefix)) VH: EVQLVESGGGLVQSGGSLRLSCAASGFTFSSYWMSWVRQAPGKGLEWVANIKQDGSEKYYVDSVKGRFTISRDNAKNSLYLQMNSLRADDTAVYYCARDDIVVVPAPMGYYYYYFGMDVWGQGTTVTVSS VL: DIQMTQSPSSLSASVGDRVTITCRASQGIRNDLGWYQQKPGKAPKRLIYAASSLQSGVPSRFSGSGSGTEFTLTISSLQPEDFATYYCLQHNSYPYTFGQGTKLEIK .
Reply | 100%

Ask | Requested field: % maximum blocking. Item: H2aM8321N (antibody, V domains shown, human variable regions, mouse IgG2 Fc (H2aM prefix); also called H2M8321N) VH: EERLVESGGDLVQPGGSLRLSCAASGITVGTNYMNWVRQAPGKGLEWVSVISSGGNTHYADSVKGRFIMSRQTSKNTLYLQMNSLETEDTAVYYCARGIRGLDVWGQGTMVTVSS VL: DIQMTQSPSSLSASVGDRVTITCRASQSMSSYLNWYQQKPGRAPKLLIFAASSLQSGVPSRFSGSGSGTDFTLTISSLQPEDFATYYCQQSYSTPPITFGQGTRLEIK
Reply | 10%

Origin of the recorded values: patent US20210380702A1
